experiment: chemical genetic growth profiling, strain panel (AID 1159580);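 also: tested at 20 µM; growth read once vehicle control cultures reached saturation at 30 °C; lower values mean less growth of the strain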; details: S. cerevisiae deletion strains, growth OD, locus YGR135W, strain pre9
In all, about 5,500 compounds went through this assay and about 2,000 (36%) were called active. Not shown: some 18% with an inconclusive outcome. Rule as the data show it: active = normalized growth mostly below about 0.91 (no sharp cut-off); inconclusive = no clear call, values can overlap the other calls; inactive = mostly above about 0.92. The list shows a part of the results.
Tick one outcome: yes (active), no (inactive)

[[record]]
molecule = "CC[C@]12CCCN3CCc4c(n(c5ccccc45)[C@](O)(C(=O)OC)C1)[C@@H]32"
qualitative_label = "no"

[[record]]
molecule = "CCOP(=S)(OCC)SCSCC"
qualitative_label = "no"


For the next question, use this molecule.
Recorded test call requested for C[C@@H]1C[C@@H]([C@H](O)CC2CC(=O)NC(=O)C2)C(=O)[C@@H](C)C1
yes
